System: Staphylococcus aureus
Experiment: Antibacterial activity against methicillin-resistant Staphylococcus aureus S22 using 1 10^6CFU/ml measured after overnight incubation by broth double-dilution method
Type: functional
The source made the active and inactive calls. The rule behind the calls is not given here.
MEASURED_METRIC: Activity

Examples with answers:
smi=CCCCCCn1sc2ccccc2c1=O measured_metric=Activity test_result=Active
smi=O=c1c2ccccc2[se]n1-c1ccccc1 measured_metric=Activity test_result=Active
smi=O=c1c2ccccc2sn1-c1cccc(Br)c1 measured_metric=Activity test_result=Active
smi=CCCCCn1sc2ccccc2c1=O measured_metric=Activity test_result=Active
smi=O=c1c2ccccc2sn1-c1ccccc1 measured_metric=Activity test_result=Active
smi=NCC[C@H](O)C(=O)N[C@@H]1C[C@H](N)[C@@H](O[C@H]2O[C@H](CN)[C@@H](O)[C@H](O)[C@H]2O)[C@H](O)[C@H]1O[C@H]1O[C@H](CO)[C@@H](O)[C@H](N)[C@H]1O measured_metric=Activity test_result=Active
smi=CCCCCCCCn1sc2ccccc2c1=O measured_metric=Activity test_result=Active

Now let's try a different one.
Entry `CC(C)c1cccc(-n2sc3ccccc3c2=O)c1` ; Activity = Active

###

System: Staphylococcus aureus
Test: Antibacterial activity against methicillin-resistant Staphylococcus aureus 1 measured after overnight incubation by broth double-dilution method
Format: functional
Parameter: MIC. Scope: all listed entries.
Response body: numeric value in µg/mL, unit text excluded.

Examples with answers:
smi=O=c1c2ccccc2sn1C1CCCCCC1 display_unit=µg/mL test_result=2
smi=O=c1c2ccccc2sn1C1CCCC1 display_unit=µg/mL test_result=2
smi=Cc1cc(C)cc(-n2sc3ccccc3c2=O)c1 display_unit=µg/mL test_result=7.8
smi=O=c1c2ccccc2sn1-c1cccc(Br)c1 display_unit=µg/mL test_result=7.8

Entry `CCCCCn1sc2ccccc2c1=O` ; MIC = 0.5

Entry `O=c1c2ccccc2sn1-c1ccc(Cl)cc1` ; MIC = 1

Entry `O=c1c2ccccc2sn1C1CCCCCCC1` ; MIC = 3.9

###

System: Staphylococcus aureus
Test: Antibacterial activity against methicillin-resistant Staphylococcus aureus C14 measured after overnight incubation by broth double-dilution method
Assay type: functional
MEASURED_METRIC: MIC (µg/mL)
Response body: numeric value in µg/mL, unit text excluded.

Examples with answers:
smi=CCCCCCCCCCCCn1sc2ccccc2c1=O display_unit=µg/mL test_result=15.6
smi=O=c1c2ccccc2sn1C1CCCCCCC1 display_unit=µg/mL test_result=2

Entry `NCC[C@H](O)C(=O)N[C@@H]1C[C@H](N)[C@@H](O[C@H]2O[C@H](CN)[C@@H](O)[C@H](O)[C@H]2O)[C@H](O)[C@H]1O[C@H]1O[C@H](CO)[C@@H](O)[C@H](N)[C@H]1O` ; MIC = 31.3

Entry `CC(C)c1cccc(-n2sc3ccccc3c2=O)c1` ; MIC = 0.5

Entry `O=c1c2ccccc2sn1-c1cccc2ccccc12` ; MIC = 2

Entry `O=c1c2ccccc2sn1-c1ccc(Cl)cc1` ; MIC = 3.9

Entry `O=c1c2ccccc2[se]n1-c1ccccc1` ; MIC = 2

Entry `O=c1c2ccccc2sn1CCc1ccccc1` ; MIC = 2

Entry `CCCCCCCCn1sc2ccccc2c1=O` ; MIC = 1

###

Test system: Staphylococcus aureus
Assay: Antibacterial activity against methicillin-resistant Staphylococcus aureus 1 measured after overnight incubation by broth double-dilution method
Assay type: functional
MEASURED_METRIC: MIC

Examples with answers:
compound=CCCCCCn1sc2ccccc2c1=O test_result="2 µg/mL"
compound=O=c1c2ccccc2sn1C1CCCCC1 test_result="2 µg/mL"
compound=CCCCCCCCCCCCn1sc2ccccc2c1=O test_result="0.25 µg/mL"
compound=O=c1c2ccccc2sn1-c1ccccn1 test_result="15.6 µg/mL"
compound="O=c1c2ccccc2[s+]([O-])n1C1CCCCCCC1 (stereo not drawn)" test_result="> 125 µg/mL"

Entry `O=c1c2ccccc2sn1-c1ccc(F)cc1` ; MIC = 3.9 µg/mL

Entry `CC(C)c1cccc(-n2sc3ccccc3c2=O)c1` ; MIC = ≤ 0.25 µg/mL

Entry `COc1cc(OC)cc(-n2sc3ccccc3c2=O)c1` ; MIC = ≤ 0.25 µg/mL

###

Tested on: Staphylococcus aureus
Test: Antibacterial activity against methicillin-resistant Staphylococcus aureus S24 measured after overnight incubation by broth double-dilution method
Format: functional
Entries whose MIC is below 2 µg/mL take MET; entries at or above 2 µg/mL take NOT MET.

See these solved cases before continuing.
compound=CC(C)CCn1sc2ccccc2c1=O test_system="Staphylococcus aureus" class="NOT MET"
compound=NCC[C@H](O)C(=O)N[C@@H]1C[C@H](N)[C@@H](O[C@H]2O[C@H](CN)[C@@H](O)[C@H](O)[C@H]2O)[C@H](O)[C@H]1O[C@H]1O[C@H](CO)[C@@H](O)[C@H](N)[C@H]1O test_system="Staphylococcus aureus" class="NOT MET"
compound="CC(C)Cn1c(=O)c2ccccc2[s+]1[O-] (stereo not drawn)" test_system="Staphylococcus aureus" class="NOT MET"
compound=CC(C)(C)n1sc2ccccc2c1=O test_system="Staphylococcus aureus" class="NOT MET"
compound=O=c1c2ccccc2sn1-c1cccc2ccccc12 test_system="Staphylococcus aureus" class=MET
compound=CCCCCCCCn1sc2ccccc2c1=O test_system="Staphylococcus aureus" class=MET
compound=CC(C)Cn1sc2ccccc2c1=O test_system="Staphylococcus aureus" class="NOT MET"
compound=O=c1c2ccccc2sn1-c1ccccn1 test_system="Staphylococcus aureus" class="NOT MET"
compound=COc1cc(OC)cc(-n2sc3ccccc3c2=O)c1 test_system="Staphylococcus aureus" class=MET
compound=CC(C)c1cccc(-n2sc3ccccc3c2=O)c1 test_system="Staphylococcus aureus" class=MET

As a next step, examine the compound that follows.
query: Is MIC of CC(C)CCn1c(=O)c2ccccc2[s+]1[O-] (stereo not drawn) strictly below 2 µg/mL?
result: NOT MET

###

Test system: Staphylococcus aureus
Assay: Antibacterial activity against methicillin-resistant Staphylococcus aureus G12 measured after overnight incubation by broth double-dilution method
Format: functional
Parameter: MIC. Scope: all listed entries.
Response body: numeric value in µg/mL, unit text excluded.

Examples with answers:
compound=O=c1c2ccccc2sn1CCCc1ccccc1 display_unit=µg/mL test_result=2
compound=O=c1c2ccccc2sn1-c1ccc(Cl)cc1 display_unit=µg/mL test_result=2
compound=Cc1cc(C)cc(-n2sc3ccccc3c2=O)c1 display_unit=µg/mL test_result=7.8

Entry `C#Cc1ccc(-n2sc3ccccc3c2=O)cc1` ; MIC = 3.9

Entry `O=c1c2ccccc2sn1C1CCCCCCC1` ; MIC = 2

Entry `CCCCCCn1sc2ccccc2c1=O` ; MIC = 2

Entry `O=c1c2ccccc2sn1-c1cccc2ccccc12` ; MIC = 0.5

Entry `CC(C)c1cccc(-n2sc3ccccc3c2=O)c1` ; MIC = 0.5

Entry O=c1c2ccccc2[se]n1-c1ccccc1 [EBSELEN] ; MIC = 1

Entry `CC(C)Cn1sc2ccccc2c1=O` ; MIC = 7.8

Entry `O=c1c2ccccc2sn1-c1ccc(F)cc1` ; MIC = 2

Entry `O=c1c2ccccc2sn1-c1ccccn1` ; MIC = 7.8

Entry NCC[C@H](O)C(=O)N[C@@H]1C[C@H](N)[C@@H](O[C@H]2O[C@H](CN)[C@@H](O)[C@H](O)[C@H]2O)[C@H](O)[C@H]1O[C@H]1O[C@H](CO)[C@@H](O)[C@H](N)[C@H]1O [AMIKACIN] ; MIC = 15.6

Entry `CC(C)c1ccc(-n2sc3ccccc3c2=O)cc1` ; MIC = 1

Entry `CCCCCCCCCCCCn1sc2ccccc2c1=O` ; MIC = 1

Entry `CCCCCn1sc2ccccc2c1=O` ; MIC = 2

Entry `O=c1c2ccccc2sn1C1CCCCCC1` ; MIC = 2

Entry `CCCCCCCCn1sc2ccccc2c1=O` ; MIC = 1

Entry `CC(C)CCn1sc2ccccc2c1=O` ; MIC = 3.9

Entry `COc1cc(OC)cc(-n2sc3ccccc3c2=O)c1` ; MIC = 0.5

Entry `O=c1c2ccccc2sn1CCc1ccccc1` ; MIC = 1

Entry `O=c1c2ccccc2sn1-c1cccc(Br)c1` ; MIC = 7.8

Entry `O=c1c2ccccc2sn1-c1ccc(Br)cc1` ; MIC = 2

###

Parameter: MIC. Scope: all listed entries.
Test system: Staphylococcus epidermidis
Test: Antibacterial activity against Staphylococcus epidermidis ATCC 35984 measured after overnight incubation by broth double-dilution method
Format: functional
Conditions: RP62A

Entry CC(C)CCn1c(=O)c2ccccc2[s+]1[O-] (stereo not drawn) ; MIC = > 125 µg/mL

Entry CC(C)Cn1c(=O)c2ccccc2[s+]1[O-] (stereo not drawn) ; MIC = > 125 µg/mL

Entry O=c1c2ccccc2[s+]([O-])n1C1CCCCCCC1 (stereo not drawn) ; MIC = > 125 µg/mL
